Target: T1, recombinant full-length human beta-catenin (human, UniProt P35222 2-781, biotinylated in the ELISA and SPR assays (sites not given); not biotinylated on the Western blots)
T1 construct: Tags are not described; also called β-catenin; biotinylated beta-catenin
T1 sequence: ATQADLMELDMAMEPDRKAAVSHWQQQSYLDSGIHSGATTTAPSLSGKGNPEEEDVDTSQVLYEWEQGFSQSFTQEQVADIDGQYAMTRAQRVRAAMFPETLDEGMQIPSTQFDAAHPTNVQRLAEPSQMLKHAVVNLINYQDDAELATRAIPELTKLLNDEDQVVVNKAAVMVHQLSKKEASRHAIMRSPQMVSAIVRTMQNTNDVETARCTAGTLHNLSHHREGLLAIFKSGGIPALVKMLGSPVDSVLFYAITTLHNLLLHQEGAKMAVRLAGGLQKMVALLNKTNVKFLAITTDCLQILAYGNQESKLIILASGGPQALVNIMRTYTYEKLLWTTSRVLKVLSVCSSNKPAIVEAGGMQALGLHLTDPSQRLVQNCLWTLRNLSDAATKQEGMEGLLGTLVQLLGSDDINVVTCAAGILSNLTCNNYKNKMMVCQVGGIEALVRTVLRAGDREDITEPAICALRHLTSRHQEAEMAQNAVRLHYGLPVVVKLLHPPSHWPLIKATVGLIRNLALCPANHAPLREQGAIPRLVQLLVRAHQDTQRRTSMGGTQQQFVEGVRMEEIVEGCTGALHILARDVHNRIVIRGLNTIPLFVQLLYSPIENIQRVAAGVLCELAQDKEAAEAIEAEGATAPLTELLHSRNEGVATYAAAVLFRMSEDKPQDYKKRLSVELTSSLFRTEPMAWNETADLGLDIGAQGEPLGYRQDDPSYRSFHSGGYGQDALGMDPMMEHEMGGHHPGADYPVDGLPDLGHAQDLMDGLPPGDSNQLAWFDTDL
Experiment: SPR (Biacore T100), biotinylated beta-catenin captured on streptavidin, VHH-scFc in solution
koff for assorted binders
Respond with the bare value in s⁻¹.

Take a look at these entries with their results.
binder	reportedMetric	recordedValue
IBO-scFc (Fc fusion, not shown: a dimerising Fc or GST; large carriers; small tags and cut ends, Single chain mouse IgG Fc construct; It is placed under this molecule; also called VH-O; biotinylated-'O') VHH: QVQLVQSGGGLVQAGDSLRLACAASEGTFRTNVMGWFRQAPGKEREFVAAISWSGGITHYSNSVKGRFAISRDNAKNTVYLQMNSLKPEDTAVYYCAADPSTTPWNLRVRVNEYEYWGQGTQVTVSS	koff	0.00026
IBV1-scFc (Fc fusion, not shown: a dimerising Fc or GST; large carriers; small tags and cut ends, Single chain mouse IgG Fc construct, used as transient HEK293 supernatant; also called VH-V1; VHH-scFc of V1) VHH: QVQLVQSGGGLVQPGGSLRLSCAASGSISSNNVMGWYRQGPGKQREFVASITDSDLANYAASVKGRFTISRDNAKNTVNLQMNSLRPEDTDVYYCRLTMMTYPPTISWGQGTQVTVSS	koff	0.000163

Let's switch to this binder now.
Using the record for IBS-scFc (Fc fusion, not shown: a dimerising Fc or GST; large carriers; small tags and cut ends, Single chain mouse IgG Fc construct, used as transient HEK293 supernatant; also called VH-S) VHH: QVQLVESGGGLVQAGGSLRLSCAASGVSFSRTSLGWFRQAPGKEREFVSVISWIGGTTYYADSLKGRFTISRDNAKSTVYLQMNSLKPEDTALYYCAISNGVLPRTEGAFASWGQGTQVTVSS , report its koff.
0.000248

Data provenance is patent US20260167713A1.
